- System: MUSK
- MEASUREMENT_CONDITIONS: concentration: 1 μM, replicates: in singlicate; n = 1;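 also: KINOMEscan kinase panel screen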
MEASUREMENT_LABEL: %Inh (%)
Quick reminder: number only, in %, skip the unit.

Here is how some molecules turned out for %Inh.
COC(=O)Nc1nc2ccc(Oc3ccc(NC(=O)Nc4cc(C(F)(F)F)ccc4F)cc3)cc2[nH]1.Cl = 99.6
CCn1cnc2c(NCc3ccccc3)ncnc21 = 0
COC(=O)Nc1nc2cc(Oc3ccc(NC(=O)Nc4cccc(SC)c4)cc3)ccc2[nH]1.Cl = 98.9

%Inh value, target or system MUSK, for COc1cccc(NC(=O)NCCNc2ccnc(Nc3ccc(F)cc3)n2)c1 : 5

Tested on MUSK, the item CN(c1ccc(NC(=O)Nc2cccc(Cl)c2)cc1)c1ccnc(N)n1.Cl showed %Inh equal to 72

// assay MUSK, entry CCNc1nccc(-c2c(-c3ccc(F)cc3)ncn2C2CCN(C)CC2)n1 , %Inh value = 97.7

* * *

- System: PRKD3
- MEASUREMENT_CONDITIONS: concentration: 1 μM, replicates: in singlicate; n = 1
MEASUREMENT_LABEL: %Inh (%)
Enter your answer as a number in %; do not include the unit.

// solved cases for %Inh follow
CC(C)(C)c1ccc(C(=O)Nc2cn3cc(-n4ccnc4)ccc3n2)cc1 = 0
CCn1c(-c2nonc2N)nc2c(-c3ccccc3)ncc(OCCCN)c21.O=C(O)C(F)(F)F.O=C(O)C(F)(F)F [GSK260205] = 100
Cc1cccc(Nc2nc(N[C@H]3CCCC[C@H]3N)ncc2C(N)=O)c1.Cl [GSK986310] = 58
NCCC(NC(=O)c1cc(Br)c(-c2ccnc3[nH]ccc23)s1)c1ccccc1.O=C(O)C(F)(F)F.O=C(O)C(F)(F)F (centres unmarked) [GSK1307810] = 35
COc1cc(Nc2nccc(N3CCC(NC(=O)Nc4ccc5c(c4)OCO5)C3)n2)cc(OC)c1OC (centres unmarked) [GSK1379766] = 0

The compound listed as Cc1cc(-c2ccnc(Nc3cccc(C#N)c3)n2)cc(C)c1O [GSK1440913] has a reported %Inh of 0

Entry COc1cccc(CC(=O)N2CCc3cc(-c4cn(C)c5ncnc(N)c45)ccc32)c1 [GSK2608899] ; %Inh = 0

The reported value for CC(C)c1nc(-c2ccc(F)c(NS(=O)(=O)c3c(F)cccc3F)c2)c(-c2ccnc(Nc3ccc(N4CCOCC4)nc3)n2)s1 [GSK1804250] in terms of %Inh is 100

* * *

- Tested on: MST1R
- MEASUREMENT_CONDITIONS: concentration: 1 μM, replicates: in singlicate; n = 1
%Inh overview
Give the value, in units of %, as a plain number.

Value of %Inh reported for the compound Cn1cc(-c2cnc(N)c3c(-c4ccc5c(c4)CCN5C(=O)Cc4ccccc4)csc23)cn1 is 12

compound COc1ccc(NC(=O)c2ccoc2)cc1-c1ccc(C(=O)NCC2CC2)cc1 , %Inh observed: 0

// %Inh lookup, compound = Cc1cc(-c2c(-c3ccc(F)cc3)ncn2CCCN2CCOCC2)nc(N)n1 , result: 18

response.value for CCNc1nccc(-c2c(-c3ccc(F)cc3)ncn2C2CCN(C)CC2)n1 (field: %Inh) = 0

compound COc1cccc(C2=C(Nc3cccc(O)c3)C(=O)NC2=O)c1 , %Inh observed: 0
